Record form. Attribute: protein stability index. Fill in for each entry.
B1: TRIM35 (parent)
chain: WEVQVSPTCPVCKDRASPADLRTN

Variants of: B1
ASSAY REMARKS: protein stability index of a GFP-peptide fusion (GPS, HEK-293T) (PSI 1-6); higher = more stable;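 note: lentivirally expressed fusions sorted by FACS into six bins by GFP to DsRed ratio, PSI derived from sequencing read proportions per bin multiplied by bin number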
APPLIED CONDITIONS: c terminus: a fixed tail appended
Number only, no unit.

// recorded protein stability index for D14W : 2.71

// recorded protein stability index for S17M : 2.01

// recorded protein stability index for P10S : 3.32

// recorded protein stability index for C12D : 4.14

// recorded protein stability index for T23D : 3.45

// recorded protein stability index for L21N : 3.21

// recorded protein stability index for A19S : 1.78

// recorded protein stability index for E2H : 2.51

// recorded protein stability index for T8E : 3.07

// recorded protein stability index for L21Q : 2.5

// recorded protein stability index for P7H : 2.2
